# IC50 listing for each entry below
- target-desc: Human recombinant PTEN (Homo sapiens, UniProt P60484)
- Construct: host or cells: Escherichia coli
- Sequence (P60484 whole entry): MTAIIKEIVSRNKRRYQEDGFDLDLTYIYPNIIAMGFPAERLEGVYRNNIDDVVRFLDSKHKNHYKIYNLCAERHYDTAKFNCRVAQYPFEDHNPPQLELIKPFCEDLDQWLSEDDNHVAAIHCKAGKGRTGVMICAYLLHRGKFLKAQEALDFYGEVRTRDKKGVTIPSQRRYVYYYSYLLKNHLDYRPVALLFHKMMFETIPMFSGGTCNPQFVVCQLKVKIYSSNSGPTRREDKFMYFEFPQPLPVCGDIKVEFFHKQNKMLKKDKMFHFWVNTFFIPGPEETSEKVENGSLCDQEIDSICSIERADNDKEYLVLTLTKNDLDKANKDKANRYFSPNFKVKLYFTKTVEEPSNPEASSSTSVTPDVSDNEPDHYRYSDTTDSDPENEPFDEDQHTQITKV
- experimental-protocol: PTEN inhibitor screen: conversion of DiFMUP to DiFMU by recombinant PTEN, spectrofluorometric
- Assay type: biochemical
- protocol-conditions: 100 μM DiFMUP, 37° C., 1 hour, pH 8.5; read-out: IC50

Reference set (2 entries):
IN: Retrieve IC50 measured for CC1(C)C(/C=C/C=C/C=C/C=C2\N(CCCCS(=O)(=O)O)c3ccc4ccccc4c3C2(C)C)=[N+](CCCCS(=O)(=O)[O-])c2ccc3ccccc3c21 [indocyanine green acid form] and print it.
OUT: 2.96 µM

IN: Retrieve IC50 measured for "CC(C)(C)CC(C)(C)c1cc(Cc2cc(C(C)(C)CC(C)(C)C)cc(-n3nc4ccccc4n3)c2O)c(O)c(-n2nc3ccccc3n2)c1" and print it.
OUT: > 10 µM

More entries:
IN: Retrieve IC50 measured for "C[C@@H]1C/C=C/C=C/C=C/C=C/[C@H](O[C@@H]2O[C@H](C)[C@@H](O)[C@H](N)[C@@H]2O)C[C@@H]2O[C@](O)(C[C@@H](O)C[C@H]3O[C@@H]3/C=C/C(=O)O1)C[C@H](O)[C@H]2C(=O)O" and print it.
OUT: > 10 µM

Data origin: patent US12036230B2
